The sequences listed here are annotated with their PBM E-score.
TESTED_SYSTEM: Cin5 (UniProt P40917)
Sequence: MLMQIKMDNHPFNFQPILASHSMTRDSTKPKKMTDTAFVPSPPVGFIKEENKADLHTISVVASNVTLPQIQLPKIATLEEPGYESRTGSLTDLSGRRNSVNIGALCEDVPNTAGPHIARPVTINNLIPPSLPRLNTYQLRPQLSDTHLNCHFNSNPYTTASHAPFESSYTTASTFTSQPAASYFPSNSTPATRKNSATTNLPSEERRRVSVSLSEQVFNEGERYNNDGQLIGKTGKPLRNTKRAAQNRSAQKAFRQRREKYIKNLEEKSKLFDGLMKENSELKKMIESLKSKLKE
ASSAY_INFO: PBM E-score (8-mer binding enrichment) (E-score (-0.5 to 0.5)); higher = stronger / more preferred TF binding
CONDITION_SUMMARY: protein concentration: 100 nM; construct: GST-full length
In all, about 33,000 sequences were measured (“E-score (-0.5 to 0.5)”: median about -0.0059, highest 2% from about 0.26 on). What follows is part of a selection rich in the highest values, with near analogues and random picks from the rest.

SEQUENCE_CONTENT: GTCTGAAC
PBM E-score: -0.16
--
SEQUENCE_CONTENT: CTCGCTTA
PBM E-score: 0.346
--
SEQUENCE_CONTENT: CGCGCTTA
PBM E-score: 0.297
--
SEQUENCE_CONTENT: ATCGCTTA
PBM E-score: 0.0758
--
SEQUENCE_CONTENT: ACAATCGT
PBM E-score: -0.0859
--
SEQUENCE_CONTENT: CACGGAAA
PBM E-score: 0.224
--
SEQUENCE_CONTENT: ACAATGTG
PBM E-score: 0.0255
--
SEQUENCE_CONTENT: GAACAGGA
PBM E-score: -0.126
--
SEQUENCE_CONTENT: AGTAGCCG
PBM E-score: 0.0345
--
SEQUENCE_CONTENT: ACGGAGAG
PBM E-score: 0.00731
--
SEQUENCE_CONTENT: ACGGTGGA
PBM E-score: -0.285
--
SEQUENCE_CONTENT: ATCGGAAT
PBM E-score: 0.151
--
SEQUENCE_CONTENT: GCCTCCGC
PBM E-score: -0.203
--
SEQUENCE_CONTENT: TGGTCGAA
PBM E-score: -0.242
--
SEQUENCE_CONTENT: CAACACTC
PBM E-score: 0.105
--
SEQUENCE_CONTENT: CGAGATTA
PBM E-score: 0.244
--
SEQUENCE_CONTENT: AGCAGTGA
PBM E-score: 0.2
--
SEQUENCE_CONTENT: AGCTGCTA
PBM E-score: -0.0218
--
SEQUENCE_CONTENT: CGCGCTGA
PBM E-score: 0.104
--
SEQUENCE_CONTENT: AGCAGCGC
PBM E-score: -0.0185
--
SEQUENCE_CONTENT: CATTATGA
PBM E-score: 0.13
--
SEQUENCE_CONTENT: GATTATGA
PBM E-score: 0.291

---

TESTED_SYSTEM: Cin5 (UniProt P40917)
Sequence: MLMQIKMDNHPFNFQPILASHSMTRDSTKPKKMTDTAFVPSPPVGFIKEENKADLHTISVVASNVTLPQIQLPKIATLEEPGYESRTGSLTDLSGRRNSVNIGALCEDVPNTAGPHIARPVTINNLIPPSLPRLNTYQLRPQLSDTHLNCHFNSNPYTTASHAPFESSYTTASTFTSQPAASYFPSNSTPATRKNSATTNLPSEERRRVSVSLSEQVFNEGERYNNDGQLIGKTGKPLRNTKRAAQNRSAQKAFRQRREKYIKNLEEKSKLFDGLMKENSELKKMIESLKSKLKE
ASSAY_INFO: PBM E-score (8-mer binding enrichment) (E-score (-0.5 to 0.5)); higher = stronger / more preferred TF binding
CONDITION_SUMMARY: protein concentration: 100 nM; construct: GST-full length
Over roughly 33,000 sequences, “E-score (-0.5 to 0.5)” has its median near -0.0059; the highest 2% begin near 0.26. The entries come from a sample that favours the highest values as a whole.
Mark fulfilled for reported PBM E-score of 0.002 or greater; mark not fulfilled for anything smaller.

SEQUENCE_CONTENT: GATAATAA
TESTED_SYSTEM: Cin5 (UniProt P40917)
CLASSIFICATION: fulfilled
--
SEQUENCE_CONTENT: CGCTGGGC
TESTED_SYSTEM: Cin5 (UniProt P40917)
CLASSIFICATION: not fulfilled
--
SEQUENCE_CONTENT: AACGTCGG
TESTED_SYSTEM: Cin5 (UniProt P40917)
CLASSIFICATION: not fulfilled
--
SEQUENCE_CONTENT: ATATCATA
TESTED_SYSTEM: Cin5 (UniProt P40917)
CLASSIFICATION: fulfilled
--
SEQUENCE_CONTENT: TACGGGAA
TESTED_SYSTEM: Cin5 (UniProt P40917)
CLASSIFICATION: not fulfilled
--
SEQUENCE_CONTENT: ATATCATG
TESTED_SYSTEM: Cin5 (UniProt P40917)
CLASSIFICATION: fulfilled
--
SEQUENCE_CONTENT: AATAATAT
TESTED_SYSTEM: Cin5 (UniProt P40917)
CLASSIFICATION: fulfilled
--
SEQUENCE_CONTENT: ATGCCCTA
TESTED_SYSTEM: Cin5 (UniProt P40917)
CLASSIFICATION: not fulfilled
--
SEQUENCE_CONTENT: CCCCTCGA
TESTED_SYSTEM: Cin5 (UniProt P40917)
CLASSIFICATION: fulfilled
--
SEQUENCE_CONTENT: CGAAGTAG
TESTED_SYSTEM: Cin5 (UniProt P40917)
CLASSIFICATION: not fulfilled
--
SEQUENCE_CONTENT: ACTAATAA
TESTED_SYSTEM: Cin5 (UniProt P40917)
CLASSIFICATION: fulfilled
--
SEQUENCE_CONTENT: TGAGACCA
TESTED_SYSTEM: Cin5 (UniProt P40917)
CLASSIFICATION: not fulfilled
--
SEQUENCE_CONTENT: AATTAATG
TESTED_SYSTEM: Cin5 (UniProt P40917)
CLASSIFICATION: fulfilled
--
SEQUENCE_CONTENT: AATAACCT
TESTED_SYSTEM: Cin5 (UniProt P40917)
CLASSIFICATION: fulfilled
--
SEQUENCE_CONTENT: ACTAATAT
TESTED_SYSTEM: Cin5 (UniProt P40917)
CLASSIFICATION: fulfilled
--
SEQUENCE_CONTENT: ATCTGCGA
TESTED_SYSTEM: Cin5 (UniProt P40917)
CLASSIFICATION: fulfilled
--
SEQUENCE_CONTENT: GTTCAGTA
TESTED_SYSTEM: Cin5 (UniProt P40917)
CLASSIFICATION: fulfilled
--
SEQUENCE_CONTENT: ACTACCCG
TESTED_SYSTEM: Cin5 (UniProt P40917)
CLASSIFICATION: not fulfilled
--
SEQUENCE_CONTENT: AATAATGT
TESTED_SYSTEM: Cin5 (UniProt P40917)
CLASSIFICATION: fulfilled
--
SEQUENCE_CONTENT: CATAATAA
TESTED_SYSTEM: Cin5 (UniProt P40917)
CLASSIFICATION: fulfilled
--
SEQUENCE_CONTENT: GTATCACA
TESTED_SYSTEM: Cin5 (UniProt P40917)
CLASSIFICATION: fulfilled
--
SEQUENCE_CONTENT: TATTAACA
TESTED_SYSTEM: Cin5 (UniProt P40917)
CLASSIFICATION: fulfilled

---

Listed below: PBM E-score values for each entry.
TESTED_SYSTEM: Cin5 (UniProt P40917)
Sequence: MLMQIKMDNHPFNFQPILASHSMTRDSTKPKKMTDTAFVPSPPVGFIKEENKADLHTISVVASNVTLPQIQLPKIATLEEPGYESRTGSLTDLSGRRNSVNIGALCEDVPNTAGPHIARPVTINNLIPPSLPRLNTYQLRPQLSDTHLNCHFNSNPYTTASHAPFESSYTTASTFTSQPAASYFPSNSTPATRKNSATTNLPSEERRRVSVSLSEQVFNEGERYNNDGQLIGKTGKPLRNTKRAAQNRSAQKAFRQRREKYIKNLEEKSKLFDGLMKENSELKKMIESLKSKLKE
ASSAY_INFO: PBM E-score (8-mer binding enrichment) (E-score (-0.5 to 0.5)); higher = stronger / more preferred TF binding
CONDITION_SUMMARY: protein concentration: 100 nM; construct: GST-full length
The full ranking holds about 33,000 sequences; the median of “E-score (-0.5 to 0.5)” is about -0.0059, and the highest 2% start at about 0.26. This excerpt belongs to a sample that is enriched for the highest values.

SEQUENCE_CONTENT: AAAGATAC
TESTED_SYSTEM: Cin5 (UniProt P40917)
PBM E-score: 0.186

SEQUENCE_CONTENT: ATTTAGTA
TESTED_SYSTEM: Cin5 (UniProt P40917)
PBM E-score: 0.303

SEQUENCE_CONTENT: AATTAGTG
TESTED_SYSTEM: Cin5 (UniProt P40917)
PBM E-score: 0.188

SEQUENCE_CONTENT: CCCATTCA
TESTED_SYSTEM: Cin5 (UniProt P40917)
PBM E-score: 0.214

SEQUENCE_CONTENT: CTAGTGAC
TESTED_SYSTEM: Cin5 (UniProt P40917)
PBM E-score: -0.0966

SEQUENCE_CONTENT: ATAGTTTA
TESTED_SYSTEM: Cin5 (UniProt P40917)
PBM E-score: 0.0429

SEQUENCE_CONTENT: ATTATGTC
TESTED_SYSTEM: Cin5 (UniProt P40917)
PBM E-score: 0.27

SEQUENCE_CONTENT: ACCGGGGC
TESTED_SYSTEM: Cin5 (UniProt P40917)
PBM E-score: -0.136

SEQUENCE_CONTENT: CATTAGTC
TESTED_SYSTEM: Cin5 (UniProt P40917)
PBM E-score: 0.0189

SEQUENCE_CONTENT: ATTATGCC
TESTED_SYSTEM: Cin5 (UniProt P40917)
PBM E-score: 0.15

SEQUENCE_CONTENT: GTCGCGAC
TESTED_SYSTEM: Cin5 (UniProt P40917)
PBM E-score: 0.317

SEQUENCE_CONTENT: AACGATAG
TESTED_SYSTEM: Cin5 (UniProt P40917)
PBM E-score: 0.0137

SEQUENCE_CONTENT: AACGATCG
TESTED_SYSTEM: Cin5 (UniProt P40917)
PBM E-score: 0.0832

SEQUENCE_CONTENT: CTCGCGAC
TESTED_SYSTEM: Cin5 (UniProt P40917)
PBM E-score: 0.107

SEQUENCE_CONTENT: CCGACCGG
TESTED_SYSTEM: Cin5 (UniProt P40917)
PBM E-score: -0.211

SEQUENCE_CONTENT: ACTATGTA
TESTED_SYSTEM: Cin5 (UniProt P40917)
PBM E-score: 0.202

SEQUENCE_CONTENT: ATTATGCG
TESTED_SYSTEM: Cin5 (UniProt P40917)
PBM E-score: 0.338

SEQUENCE_CONTENT: GATTAGTA
TESTED_SYSTEM: Cin5 (UniProt P40917)
PBM E-score: 0.254

SEQUENCE_CONTENT: AACGATAT
TESTED_SYSTEM: Cin5 (UniProt P40917)
PBM E-score: 0.285

SEQUENCE_CONTENT: AATTAGAT
TESTED_SYSTEM: Cin5 (UniProt P40917)
PBM E-score: 0.294

SEQUENCE_CONTENT: AAAGATAT
TESTED_SYSTEM: Cin5 (UniProt P40917)
PBM E-score: 0.3

SEQUENCE_CONTENT: ATTATGTA
TESTED_SYSTEM: Cin5 (UniProt P40917)
PBM E-score: 0.42
